Data provenance is ChEMBL document CHEMBL1148398.

System: Rattus norvegicus
assay.comment: Percent change in total plasma cholesterol following oral administration of compound in normal chow-fed rats at 100 mg/kg/day for 4 days
Type: functional
property.measured: Change

Entry CN1CC(=O)N(c2ccc3c(c2)CCC3)C1=S : reported Change = ?
26%

Entry CCN1CC(=O)N(c2cc(C)ccc2C)C1=S : reported Change = ?
26.4%

Entry CC(C)c1ccccc1N1C(=O)CON(C)C1=S : reported Change = ?
92.4%

Entry Cc1cccc(Cl)c1N1C(=O)CN(C)C1=S : reported Change = ?
71.2%

Entry CCN1C(=S)N(CC(C)C)C(=O)C1c1ccccc1 (stereo not given) : reported Change = ?
-8.4%

Entry CCc1cccc(C(C)C)c1N1C(=O)CN(CC)C1=S : reported Change = ?
30.9%

Entry Cc1ccc(C)c(N2C(=O)CON(C)C2=S)c1 : reported Change = ?
75.2%

Entry Cc1cccc(C)c1N1C(=O)CN(C(C)C)C1=S : reported Change = ?
56.1%

Entry CCN1CCC(=O)N(c2ccccc2F)C1=S : reported Change = ?
48.7%

Entry C#CCN1CC(=O)N(c2c(C)cccc2C)C1=S : reported Change = ?
98%

Entry CCN1CCC(=O)N(c2c(C)cccc2C)C1=S : reported Change = ?
70.4%

Entry CCN1CC(=O)N(c2ccc(C)cc2C)C1=S : reported Change = ?
55.5%

Entry CCc1cccc(C)c1N1C(=O)CN(CC)C1=S : reported Change = ?
52.8%

Entry Cc1cccc(Cl)c1N1C(=O)CON(C)C1=S : reported Change = ?
40.4%

Entry C=CCN1CC(=O)N(c2c(C)cccc2C)C1=S : reported Change = ?
86%

* * *

Please provide measured Change for the entries that follow.
System: Rattus norvegicus
assay.comment: Percent change in total plasma cholesterol following oral administration of compound in normal chow-fed rats at 100 mg/kg/day for 4 days
Type: functional
Provide only the numeric value, understood in %.

Entry CCN1CC(=O)N(c2c(C)cccc2C)C1=S : reported Change = ?
106.7

Entry CCN1CC(=O)N(c2cc(F)ccc2C)C1=S : reported Change = ?
95.2

Entry CCN1CCC(=O)N(c2ccccc2C(C)C)C1=S : reported Change = ?
59.2

Entry CCN1CC(=O)N(c2c(C)cccc2Cl)C1=S : reported Change = ?
79.8

Entry CCN1CC(=O)N(c2cccc(Cl)c2Cl)C1=S : reported Change = ?
89.6

Entry Cc1cc(Cl)ccc1N1C(=O)CON(C)C1=S : reported Change = ?
51.4

Entry CCN1CC(=O)N(c2ccccc2C(C)C)C1=S : reported Change = ?
111.4

Entry CON1CC(=O)N(c2cc(Cl)ccc2C)C1=S : reported Change = ?
134.4

Entry COc1ccc(Cl)cc1N1C(=O)CON(C)C1=S : reported Change = ?
67.7

Entry CN1OCC(=O)N(c2ccc(Oc3ccccc3)cc2)C1=S : reported Change = ?
-13

Entry CCN1C(=S)N(c2cc(Cl)ccc2C)C(=O)C1OC (stereo not drawn) : reported Change = ?
102.3

Entry CCN1C(=O)C(=O)N(c2c(C)cccc2C)C1=S : reported Change = ?
138.2

Entry CN1OCC(=O)N(c2cccc3c2CCC3)C1=S : reported Change = ?
78.5

* * *

Tested on: Rattus norvegicus
assay.comment: Percent change in total plasma cholesterol following oral administration of compound in normal chow-fed rats at 100 mg/kg/day for 4 days
Assay type: functional
property.measured: Change (%)
Provide only the numeric value, understood in %.

Entry Cc1ccc(Cl)cc1N1C(=O)C(C)N(C)C1=S (stereo not drawn) : reported Change = ?
276.5

Entry CCN1CC(=O)N(c2ccc(OC(F)(F)F)cc2)C1=S : reported Change = ?
197.6

Entry CCN1CC(=O)N(c2ccccc2C(F)(F)F)C1=S : reported Change = ?
67.2

Entry CCN1C(=O)C(=O)N(c2cc(Cl)ccc2C)C1=S : reported Change = ?
123.4

Entry CN1CC(=O)N(c2c(Cl)cccc2Cl)C1=S : reported Change = ?
83.9

Entry CCN1CC(=O)N(c2cc(Cl)ccc2C)C1=S : reported Change = ?
72.8

Entry CCN1CCC(=O)N(c2ccc(Cl)cc2C)C1=S : reported Change = ?
80.7

Entry CN1OCC(=O)N(c2ccc(C(C)(C)C)cc2)C1=S : reported Change = ?
62

Entry CCN1CC(=O)N(c2ccccc2C)C1=S : reported Change = ?
52.1

Entry CCN1CC(=O)N(c2c(Cl)cccc2Cl)C1=S : reported Change = ?
57

Entry Cc1ccc(Cl)cc1N1C(=O)CON(C)C1=S : reported Change = ?
85.7

Entry CN1OCC(=O)N(C(c2ccccc2)c2ccccc2)C1=S : reported Change = ?
17.6

Entry CCN1CCC(=O)N(c2c(C)cccc2Cl)C1=S : reported Change = ?
45.4

* * *

Test system: Cricetinae gen. sp.
assay.comment: Percent change in total plasma cholesterol following oral administration of compound in hypercholesterolemic hamsters at 100 mg/kg/day for 14 days
Assay type: functional
property.measured: Change
Respond with a number, then the unit of measure.

What is its Change for Cricetinae gen. sp.? Entry: CCN1CC(=O)N(c2cc(Cl)ccc2C)C1=S
-3.3%

What is its Change for Cricetinae gen. sp.? Entry: CCN1C(=S)N(c2cc(Cl)ccc2C)C(=O)C1OC (configuration not stated)
3.8%

What is its Change for Cricetinae gen. sp.? Entry: Cc1cccc(C)c1N1C(=O)CN(C(C)C)C1=S
-3.1%

What is its Change for Cricetinae gen. sp.? Entry: CCN1CCC(=O)N(c2ccc(Cl)cc2C)C1=S
2%

What is its Change for Cricetinae gen. sp.? Entry: CCN1CC(=O)N(c2ccc(C)cc2C)C1=S
10.7%

What is its Change for Cricetinae gen. sp.? Entry: Cc1cccc(Cl)c1N1C(=O)CON(C)C1=S
-21.4%

What is its Change for Cricetinae gen. sp.? Entry: CCN1CC(=O)N(c2ccccc2C(C)C)C1=S
-5.9%

What is its Change for Cricetinae gen. sp.? Entry: Cc1ccc(C)c(N2C(=O)CON(C)C2=S)c1
-13.8%

What is its Change for Cricetinae gen. sp.? Entry: COc1ccc(Cl)cc1N1C(=O)CON(C)C1=S
-7.9%

What is its Change for Cricetinae gen. sp.? Entry: CCN1CC(=O)N(c2c(C)cccc2Cl)C1=S
-32.2%

What is its Change for Cricetinae gen. sp.? Entry: CCN1CC(=O)N(c2cccc(Cl)c2Cl)C1=S
-8%

What is its Change for Cricetinae gen. sp.? Entry: CCN1CCC(=O)N(c2c(C)cccc2C)C1=S
-3%

* * *

Test system: Cricetinae gen. sp.
assay.comment: Percent change in low-density lipoprotein cholesterol following oral administration of compound in hypercholesterolemic hamsters at 100 mg/kg/day for 14 days
Type: functional
Please provide measured Change for the entries that follow.
Respond with a number, then the unit of measure.

Entry CCN1CC(=O)N(c2cc(Cl)ccc2C)C1=S : reported Change = ?
-30.1%

Entry COc1ccc(Cl)cc1N1C(=O)CON(C)C1=S : reported Change = ?
-20.2%

Entry Cc1cccc(Cl)c1N1C(=O)CON(C)C1=S : reported Change = ?
-22.4%

Entry CCN1CC(=O)N(c2cccc(Cl)c2Cl)C1=S : reported Change = ?
-8.1%

Entry CCN1CC(=O)N(c2ccc(C)cc2C)C1=S : reported Change = ?
-11.6%

Entry CCN1C(=S)N(c2cc(Cl)ccc2C)C(=O)C1OC (configuration not stated) : reported Change = ?
-19%

Entry CCN1CC(=O)N(c2ccccc2C(C)C)C1=S : reported Change = ?
-41%

Entry CCN1CCC(=O)N(c2c(C)cccc2C)C1=S : reported Change = ?
24%

Entry CCN1CCC(=O)N(c2ccc(Cl)cc2C)C1=S : reported Change = ?
-26.8%

Entry Cc1ccc(C)c(N2C(=O)CON(C)C2=S)c1 : reported Change = ?
-40.1%

Entry CCN1CC(=O)N(c2c(C)cccc2Cl)C1=S : reported Change = ?
-39.1%

Entry Cc1cccc(C)c1N1C(=O)CN(C(C)C)C1=S : reported Change = ?
17.2%
